Data provenance is paper PMC7080406.

target: MT1 (Homo sapiens, UniProt P48039); construct: expressed in transfected cells; host or cells: HEK293T (ATCC CRL-11268), transient transfection; assay: GloSensor Gi/o-mediated cAMP production inhibition assay, MT1; type: cell-based; settings: read-out: MT1 Emax ± SEM
Sequence (P48039 whole entry): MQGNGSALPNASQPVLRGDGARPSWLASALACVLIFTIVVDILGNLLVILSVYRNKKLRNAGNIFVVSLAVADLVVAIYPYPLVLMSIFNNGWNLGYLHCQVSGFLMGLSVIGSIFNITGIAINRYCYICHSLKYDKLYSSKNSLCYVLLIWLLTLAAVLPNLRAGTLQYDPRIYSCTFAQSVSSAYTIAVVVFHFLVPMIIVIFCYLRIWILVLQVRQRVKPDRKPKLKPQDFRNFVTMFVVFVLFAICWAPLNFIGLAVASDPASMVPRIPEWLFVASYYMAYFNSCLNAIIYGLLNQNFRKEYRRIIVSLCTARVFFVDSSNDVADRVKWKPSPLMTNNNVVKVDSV
Give measured Emax for each item. Keep answers brief.

Request: Which Emax value is on record for CC(=O)c1sc2nc3c(cc2c1N)CCC3 [Compound 45] ?
Result: 90.6%

Request: Which Emax value is on record for COC(=O)c1[nH]c2cc(OC)ccc2c1N [Compound 54] ?
Result: 82.8%

Request: Which Emax value is on record for CC(=O)NCC1CCCCN1c1ccnc(C)n1 (stereo not drawn) [Compound 29] ?
Result: 87.5%

Request: Which Emax value is on record for COc1cccc(CNC(=O)c2ccno2)c1 [Compound 57] ?
Result: 87.5%

Request: Which Emax value is on record for COc1ccc2[nH]cc(CCNC(C)=O)c2c1 [Melatonin, N-acetyl-5-methoxytryptamine, reference compound] ?
Result: 100%

Request: Which Emax value is on record for COc1cccc(Cn2c(N)cc(=O)[nH]c2=O)c1 [Compound 44] ?
Result: 72.8%
